// data source = patent EP4772535A1

# targetOrSystem: T1, ROR1 naturally expressed on human tumor cell lines (A549, Jeko-1, SW620, PA-1) (human, UniProt Q01973 30-937)
# T1 construct: whole, on cells; also called cells expressing ROR1
# T1 sequence (Q01973 30-937): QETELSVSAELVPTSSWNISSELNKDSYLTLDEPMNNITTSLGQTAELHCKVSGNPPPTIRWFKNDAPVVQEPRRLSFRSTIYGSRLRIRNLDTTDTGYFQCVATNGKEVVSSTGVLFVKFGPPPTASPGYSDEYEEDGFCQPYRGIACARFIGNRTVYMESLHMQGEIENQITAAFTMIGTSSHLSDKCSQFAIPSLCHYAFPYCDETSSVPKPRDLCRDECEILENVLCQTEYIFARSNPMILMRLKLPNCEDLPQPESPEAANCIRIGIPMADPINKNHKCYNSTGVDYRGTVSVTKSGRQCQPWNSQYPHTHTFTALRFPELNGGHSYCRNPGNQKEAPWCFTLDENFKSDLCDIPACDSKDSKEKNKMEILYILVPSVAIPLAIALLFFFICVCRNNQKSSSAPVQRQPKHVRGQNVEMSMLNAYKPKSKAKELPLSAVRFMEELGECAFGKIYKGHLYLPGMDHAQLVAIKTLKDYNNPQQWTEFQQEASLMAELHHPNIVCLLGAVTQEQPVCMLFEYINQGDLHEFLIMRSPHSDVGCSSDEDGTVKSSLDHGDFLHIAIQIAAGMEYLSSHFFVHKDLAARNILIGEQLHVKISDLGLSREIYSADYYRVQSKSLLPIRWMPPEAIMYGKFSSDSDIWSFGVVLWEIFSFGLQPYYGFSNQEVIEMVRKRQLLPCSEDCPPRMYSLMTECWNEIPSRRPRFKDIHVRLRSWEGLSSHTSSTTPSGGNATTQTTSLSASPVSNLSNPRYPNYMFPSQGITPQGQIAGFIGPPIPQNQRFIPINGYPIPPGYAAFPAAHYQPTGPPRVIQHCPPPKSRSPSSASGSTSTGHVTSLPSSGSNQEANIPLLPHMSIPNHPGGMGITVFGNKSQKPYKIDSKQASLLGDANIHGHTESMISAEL
# measurementProtocol: FACS on Jeko-1 cells naturally expressing ROR1
measuredProperty: EC50 (nM)

- ch3G9B1 (antibody, human IgG1, kappa, V domains shown, also called chimeric antibody of m3G9B1) VH: QVQLQQSGTELARPGASVKLSCKASGYTFTSYGITWVKQRTGQGLEWIGEIYPRSGNTYFNEKFKGKATLTADKSSSTAYMELRSLTSEDSAVYFCARDRTGTGVDDYWGQGTTLTVSS VL: DIVLTQSPASLSMAIGEKVTIRCITNTDIDDDMSWYQQKPGEPPNLLISEGNTLRPGVPSRFSSSGYGRDFVFTIENMLSEDVADYYCLQSNNLPYTFGGGTKLEIKR: 0.01
